Recorded MIC by entry
# System: Streptococcus pneumoniae
# Assay Method Text: Antibacterial activity against erythromycin-sensitive Streptococcus pneumoniae 12-10 by broth microdilution method
# Type: functional
Reported Endpoint: MIC (mg/L)

[
  {
    "Mol": "CC[C@H]1OC(=O)[C@H](C)[C@@H](O[C@H]2C[C@@](C)(OC)[C@@H](O[C@@H]3O[C@H](C)[C@@H](OCc4ccccc4)[C@H](N(C)C)[C@H]3O)[C@H](C)O2)[C@H](C)[C@@H](O[C@@H]2O[C@H](C)C[C@H](N(C)C)[C@H]2O)[C@@](C)(OC)C[C@@H](C)C(=O)[C@H](C)[C@@H](O)[C@]1(C)O",
    "Reported Endpoint": "MIC",
    "Inequality Symbol": "=",
    "Numeric Result": 32
  },
  {
    "Mol": "CC[C@H]1OC(=O)[C@H](C)[C@@H](O[C@H]2C[C@@](C)(OC)[C@@H](O[C@@H]3O[C@H](C)[C@@H](OCc4ccccc4)[C@H](N(C)C)[C@H]3OC(=O)c3ccccc3)[C@H](C)O2)[C@H](C)[C@@H](O[C@@H]2O[C@H](C)C[C@H](N(C)C)[C@H]2O)[C@@](C)(OC)C[C@@H](C)C(=O)[C@H](C)[C@@H](O)[C@]1(C)O",
    "Reported Endpoint": "MIC",
    "Inequality Symbol": "=",
    "Numeric Result": 16
  },
  {
    "Mol": "CC[C@H]1OC(=O)[C@H](C)[C@@H](O[C@H]2C[C@@](C)(OC)[C@@H](O[C@@H]3O[C@H](C)[C@@H](OCc4ccccc4)[C@H](N(C)C)[C@H]3O)[C@H](C)O2)[C@H](C)[C@@H](O[C@@H]2O[C@H](C)C[C@H](N(C)C)[C@H]2O)[C@@](C)(OC)C[C@@H](C)C(=O)[C@H](C)[C@H]2OC(=O)O[C@@]21C",
    "Reported Endpoint": "MIC",
    "Inequality Symbol": "=",
    "Numeric Result": 1
  },
  {
    "Mol": "CC[C@H]1OC(=O)[C@H](C)[C@@H](O[C@H]2C[C@@](C)(OC)[C@@H](O[C@@H]3O[C@H](C)[C@@H](O)[C@H](N(C)C)[C@H]3OC(=O)c3ccccc3)[C@H](C)O2)[C@H](C)[C@@H](O[C@@H]2O[C@H](C)C[C@H](N(C)C)[C@H]2O)[C@@](C)(OC)C[C@@H](C)C(=O)[C@H](C)[C@H]2OC(=O)O[C@@]21C",
    "Reported Endpoint": "MIC",
    "Inequality Symbol": "=",
    "Numeric Result": 2
  },
  {
    "Mol": "CC[C@H]1OC(=O)[C@H](C)[C@@H](O[C@H]2C[C@@](C)(OC)[C@@H](O[C@@H]3O[C@H](C)[C@@H](O)[C@H](N(C)C)[C@H]3OC(=O)c3ccccc3)[C@H](C)O2)[C@H](C)[C@@H](O[C@@H]2O[C@H](C)C[C@H](N(C)C)[C@H]2O)[C@@](C)(OC)C[C@@H](C)C(=O)[C@H](C)[C@@H](O)[C@]1(C)O",
    "Reported Endpoint": "MIC",
    "Inequality Symbol": "=",
    "Numeric Result": 16
  },
  {
    "Mol": "CC[C@H]1OC(=O)[C@H](C)[C@@H](O[C@H]2C[C@@](C)(OC)[C@@H](O[C@@H]3O[C@H](C)[C@@H](OCc4ccccc4)[C@H](N(C)C)[C@H]3OC(=O)c3ccccc3)[C@H](C)O2)[C@H](C)[C@@H](O[C@@H]2O[C@H](C)C[C@H](N(C)C)[C@H]2O)[C@@](C)(OC)C[C@@H](C)C(=O)[C@H](C)[C@H]2OC(=O)O[C@@]21C",
    "Reported Endpoint": "MIC",
    "Inequality Symbol": ">",
    "Numeric Result": 32
  }
]
